- assay comment: Food effect cross-over study, 200 mg (25 mg tablets), healthy volunteers: plasma pharmacokinetics
- Type: in vivo, human
- experimental conditions: human, plasma, oral, 9 hours postdose, Fasted, read-out: Plasma concentration, Geometric Mean
- Description: This example describes a clinical study for establishing, in healthy volunteers, the effect of a high fat, high caloric meal on the PK profile of Compound I, as compared to administration of the drug in the fasted state. The study also was intended to determine the safety and tolerability after a single oral dose of Compound I in the fed and fasted state in healthy volunteers. […] Plasma drug concentrations were measured as described in Example 1 above. […]
recorded endpoint: concentration at 9 h (ng/mL)

- Cn1cc(S(=O)(=O)[C@@](C)(F)C2CCN(C(=O)Nc3ccon3)CC2)c(C(F)F)n1 [Compound I]: 1970

====

- assay comment: Single ascending oral dose study in healthy volunteers: plasma pharmacokinetics
- Assay type: in vivo, human
- experimental conditions: human, plasma, oral, 350 mg, 12 Hours Postdose; 350 mg; read-out: Plasma concentration, Mean
recorded endpoint: concentration at 12 h

• Cn1cc(S(=O)(=O)[C@@](C)(F)C2CCN(C(=O)Nc3ccon3)CC2)c(C(F)F)n1 = 2140 ng/mL

====

- assay comment: Food effect cross-over study, 200 mg (25 mg tablets), healthy volunteers: plasma pharmacokinetics
- Type: in vivo, human
- experimental conditions: human, plasma, po, single 200 mg oral dose, Fasted (N = 10), read-out: T1/2, z, Geometric Mean (converted)
- Protocol: This example describes a clinical study for establishing, in healthy volunteers, the effect of a high fat, high caloric meal on the PK profile of Compound I, as compared to administration of the drug in the fasted state. The study also was intended to determine the safety and tolerability after a single oral dose of Compound I in the fed and fasted state in healthy volunteers. […] Plasma drug concentrations were measured as described in Example 1 above. […]
recorded endpoint: half-life

• Cn1cc(S(=O)(=O)[C@@](C)(F)C2CCN(C(=O)Nc3ccon3)CC2)c(C(F)F)n1 = 14.1 h

====

- assay comment: Single ascending oral dose study in healthy volunteers: plasma pharmacokinetics
- Format: in vivo, human
- experimental conditions: human, plasma, oral, 10 mg; read-out: AUC0-last, Geometric Mean
recorded endpoint: AUC(0-t) (ng·h/mL)

• Cn1cc(S(=O)(=O)[C@@](C)(F)C2CCN(C(=O)Nc3ccon3)CC2)c(C(F)F)n1 = 3280

====

- assay comment: HFrEF study Part 1 (SAD Cohorts 1 and 2): plasma pharmacokinetics
- Type: in vivo, human
- experimental conditions: human, plasma, oral, 350 mg, SAD Cohort 1, 4th dose 350 mg (n = 1); read-out: AUC0-24
recorded endpoint: AUC(0-t)

• Cn1cc(S(=O)(=O)[C@@](C)(F)C2CCN(C(=O)Nc3ccon3)CC2)c(C(F)F)n1 = 70100 ng·h/mL

====

- assay comment: Single ascending oral dose study in healthy volunteers: plasma pharmacokinetics
- Format: in vivo, human
- experimental conditions: human, plasma, oral, 6 Hours Postdose; 350 mg + 525 mg; read-out: Plasma concentration, Mean
recorded endpoint: concentration at 6 h (ng/mL)

* Cn1cc(S(=O)(=O)[C@@](C)(F)C2CCN(C(=O)Nc3ccon3)CC2)c(C(F)F)n1 | 2440

====

- assay comment: Single ascending oral dose study in healthy volunteers: plasma pharmacokinetics
- Type: in vivo, human
- experimental conditions: human, plasma, oral, 50 mg; read-out: AUC0-48, Mean
recorded endpoint: AUC(0-t) (µg·h/mL)

- Cn1cc(S(=O)(=O)[C@@](C)(F)C2CCN(C(=O)Nc3ccon3)CC2)c(C(F)F)n1 [Compound I]: 10.1
